B1: Gamma-crystallin D, residues 90 to 170; numbered along this chain, P07320 (parent)
chain: IRLYEREDYRGQMIEFTEDCSCLQDRFRFNEIHSLNVLEGSWVLYELSNYRGRQYLLMPGDYRRYQDWGATNARVGSLRRV

# Variants of: B1
# ASSAY COMMENT: abundance fitness (aPCA) (normalised: wild type 0, dead -1); higher = more abundant; growth selection in yeast, the domain comes from the species named
# STATED CONDITIONS: Homo sapiens
Label 1.0 when abundance fitness is at or above -0.1; anything below gets 0.0.

The examples below pair each entry with its known result.
E18C | 1.0
Y50Q | 0.0
F29L | 1.0
P59I | 0.0
R10W | 1.0
L35P | 0.0

### Prompt Does abundance fitness meet or surpass -0.1 for `R10Y` ?
### Response 1.0

### Prompt Assess whether reported abundance fitness for `L47Y` sits at -0.1 or higher.
### Response 0.0

### Prompt Reported abundance fitness reaches at least -0.1 for `D25N` ?
### Response 0.0

### Prompt Can `R28I` be said to have abundance fitness at or above -0.1?
### Response 1.0

### Prompt hey, is abundance fitness for this one >= -0.1? `V37A`
### Response 1.0

Attribution: the Human Domainome abundance scans (Beltran et al. 2025)
